Assign Relative binding affinity (%) to each entry below.
# target-of-assay: T1, interleukin-2 beta receptor (SYMANSIS, #4122H) to which a human immunoglobulin Fc region was linked (UniProt P14784 27-239, limits assumed)
# T1 construct: Bought receptor-Fc, captured on anti-human immunoglobulin antibody; also called IL-2Rβ; CD122; not shown: human immunoglobulin Fc region
# T1 sequence (looked up): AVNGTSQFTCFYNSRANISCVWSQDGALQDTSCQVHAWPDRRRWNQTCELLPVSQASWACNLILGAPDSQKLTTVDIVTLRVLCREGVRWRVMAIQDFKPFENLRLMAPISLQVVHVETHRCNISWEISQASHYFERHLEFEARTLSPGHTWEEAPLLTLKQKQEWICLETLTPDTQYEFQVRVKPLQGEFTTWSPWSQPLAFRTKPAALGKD
# assay-notes: SPR (Biacore T200); receptor-Fc captured on anti-human Ig CM5 chip, analog flowed; relative to analog 1 = 100%
Numbers only; they are read as %.

Query: Find the recorded Relative binding affinity (%) belonging to interleukin-2 analog 98 (ligand) PTSSSTKKTQLQLEHLLLDLQMILNGINNYKNPKLTAMLTFKFYMPKKATELKHLQCLEEELKPLEEVLNLAQSKNFHFEPRDVISNINVFVLELKGSETTFMCEYADETATIVEFLNRWITFSQSIISTLT and report it.
Reply: 11100

Query: Field request: Relative binding affinity (%) | item: interleukin-2 analog 15 (ligand) PTSSSTKKTQLQLEHLLLDLQMILNGINNYKNPKLTAMLTKKFYMPKKATELKHLQCLEEELKPLEEVLNLAQSKNFHLRPRELISNINVIVLELKGSETTFMCEYADETATIVEFLNRWITFSQSIISTLT
Reply: 98.1
